The origin of these recorded values is ChEMBL document CHEMBL1153895.

# Assay Comment: Clearance in rat at 2.0 mg/kg, iv
# Format: ADME, organism-based
# Parameters: dose 2 mg/kg, route intravenous
# Condition Details: in vivo

Smiles Code: CNC(=O)c1c(F)cccc1Nc1nc(Nc2ccc(N3CCN(C(C)C)CC3)cc2OC)nc2[nH]ccc12
clearance / mL/min/kg: 32

###

# Experimental System: Insulin-like growth factor 1 receptor (Homo sapiens, UniProt P08069)
# Sequence (P08069 31-736 limits assumed): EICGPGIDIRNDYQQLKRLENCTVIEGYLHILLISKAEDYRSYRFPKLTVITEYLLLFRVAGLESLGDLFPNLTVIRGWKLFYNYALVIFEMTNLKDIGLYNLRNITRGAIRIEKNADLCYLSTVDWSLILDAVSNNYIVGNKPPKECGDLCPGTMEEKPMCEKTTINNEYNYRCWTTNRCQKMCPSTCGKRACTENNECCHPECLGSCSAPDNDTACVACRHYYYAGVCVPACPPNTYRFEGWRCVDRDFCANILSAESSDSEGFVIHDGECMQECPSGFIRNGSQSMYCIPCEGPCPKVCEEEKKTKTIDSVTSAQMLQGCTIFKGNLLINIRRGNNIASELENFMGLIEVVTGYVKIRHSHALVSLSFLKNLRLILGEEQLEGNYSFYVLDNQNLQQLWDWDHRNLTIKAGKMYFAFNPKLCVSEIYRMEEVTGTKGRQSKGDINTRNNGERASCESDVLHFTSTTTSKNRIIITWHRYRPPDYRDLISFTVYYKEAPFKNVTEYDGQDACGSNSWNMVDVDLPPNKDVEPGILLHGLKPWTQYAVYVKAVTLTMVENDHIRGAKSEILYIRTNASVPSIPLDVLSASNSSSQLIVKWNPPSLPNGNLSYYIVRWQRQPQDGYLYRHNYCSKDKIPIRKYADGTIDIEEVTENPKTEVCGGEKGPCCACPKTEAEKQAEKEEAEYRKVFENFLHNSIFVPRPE
# Sequence (P08069 741-1367 limits assumed): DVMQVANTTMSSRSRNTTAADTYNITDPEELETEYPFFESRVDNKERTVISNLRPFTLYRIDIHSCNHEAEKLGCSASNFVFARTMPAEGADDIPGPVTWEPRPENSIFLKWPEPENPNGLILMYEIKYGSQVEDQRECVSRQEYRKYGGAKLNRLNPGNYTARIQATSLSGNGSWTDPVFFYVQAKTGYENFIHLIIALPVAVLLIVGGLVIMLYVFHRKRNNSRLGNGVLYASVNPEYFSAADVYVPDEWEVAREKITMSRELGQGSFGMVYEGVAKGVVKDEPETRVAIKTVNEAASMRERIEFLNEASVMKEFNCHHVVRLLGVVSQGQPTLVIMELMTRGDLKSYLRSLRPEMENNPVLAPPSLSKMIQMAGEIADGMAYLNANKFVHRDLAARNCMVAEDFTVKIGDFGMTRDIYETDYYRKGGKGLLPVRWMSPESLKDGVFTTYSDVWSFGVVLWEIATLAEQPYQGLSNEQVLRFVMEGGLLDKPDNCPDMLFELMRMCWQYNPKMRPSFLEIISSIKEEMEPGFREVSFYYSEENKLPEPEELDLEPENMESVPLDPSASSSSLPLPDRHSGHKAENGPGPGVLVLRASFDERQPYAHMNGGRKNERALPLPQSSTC
# Assay Comment: Inhibition of human IGF1R phosphorylation expressed in HEK293 cells by DELFIA
# Assay type: cell-based
pIC50: −log10 of the molar value.
Record 1.0 whenever pIC50 is at 7 or higher; record 0.0 when lower.

Molecule: COc1cc(N2CCN(C(C)C)CC2)ccc1Nc1nc(Nc2ccc(F)cc2C(=O)NCCO)c2cc[nH]c2n1
Experimental System: Insulin-like growth factor 1 receptor (Homo sapiens, UniProt P08069)
Answer Label: 0.0
--
Molecule: COc1cc(N2CCN(C(C)C)CC2)ccc1Nc1nc(Nc2ccc(F)cc2C(=O)NC[C@@H](O)CO)c2cc[nH]c2n1 [GSK-1392956A]
Experimental System: Insulin-like growth factor 1 receptor (Homo sapiens, UniProt P08069)
Answer Label: 0.0
--
Molecule: COc1cc(C)c(N2CCN(C(C)C)CC2)cc1Nc1nc(Nc2cccc(F)c2C(N)=O)c2cc[nH]c2n1
Experimental System: Insulin-like growth factor 1 receptor (Homo sapiens, UniProt P08069)
Answer Label: 0.0
--
Molecule: COc1c(Nc2nc(Nc3cccc(F)c3C(N)=O)c3cc[nH]c3n2)ccc(N2CCN(C(C)C)CC2)c1F
Experimental System: Insulin-like growth factor 1 receptor (Homo sapiens, UniProt P08069)
Answer Label: 0.0
--
Molecule: COc1cc(N2CCN(C(C)C)CC2)ccc1Nc1nc(Nc2ccc(F)cc2C(N)=O)c2cc[nH]c2n1 [GSK-1220512A]
Experimental System: Insulin-like growth factor 1 receptor (Homo sapiens, UniProt P08069)
Answer Label: 1.0

###

# Experimental System: Insulin-like growth factor 1 receptor (Homo sapiens)
# Assay Comment: Inhibition of human IGF1R phosphorylation expressed in HEK293 cells by DELFIA
# Format: cell-based

Compound: CCCN1CCC=C(c2ccc(Nc3nc(Nc4cc(F)ccc4C(N)=O)c4cc[nH]c4n3)c(OC)c2)C1
IC50: 0.082 µM
//
Compound: CCCN1CCCC(c2ccc(Nc3nc(Nc4cc(F)ccc4C(N)=O)c4cc[nH]c4n3)c(OC)c2)C1 (racemic) [GSK-1173862A]
IC50: 0.06 µM
//
Compound: CNC(=O)c1cc(F)ccc1Nc1nc(Nc2ccc(N3CCN(C(C)C)CC3)cc2OC)nc2[nH]ccc12
IC50: 0.135 µM
//
Compound: COc1cc(N2CCN(C(C)C)CC2)ccc1Nc1nc(Nc2cc(F)ccc2C(N)=O)c2cc[nH]c2n1
IC50: 0.13 µM
//
Compound: COc1c(Nc2nc(Nc3cccc(F)c3C(N)=O)c3cc[nH]c3n2)ccc(N2CCN(C(C)C)CC2)c1C
IC50: 3.7 µM
//
Compound: COCCNC(=O)c1cc(F)ccc1Nc1nc(Nc2ccc(N3CCN(C(C)C)CC3)cc2OC)nc2[nH]ccc12
IC50: 0.76 µM

###

# Experimental System: Insulin-like growth factor 1 receptor (Homo sapiens)
# Assay Comment: Inhibition of GST-tagged human IGF1R expressed in Sf9 cells by Wallac Victor fluorometer
pIC50: −log10 of the molar value.
Documented pIC50 across a set of compounds
Measured Endpoint: pIC50

Compound: CCCN1CCC=C(c2ccc(Nc3nc(Nc4ccccc4C(N)=O)c4cc[nH]c4n3)cc2)C1
Experimental Value: 8.80
//
Compound: COc1cc(N2CCN(C(C)C)CC2)ccc1Nc1nc(Nc2cc(F)ccc2C(N)=O)c2cc[nH]c2n1
Experimental Value: 9.10
//
Compound: COc1cc(N2CCN(C(C)C)CC2)ccc1Nc1nc(Nc2ccccc2C(N)=O)c2cc[nH]c2n1
Experimental Value: 9.00
//
Compound: COc1cc(N2CCN(C(C)C)CC2)ccc1Nc1nc(Nc2ccc(F)cc2C(=O)NCCO)c2cc[nH]c2n1
Experimental Value: 8.30
//
Compound: CCCN1CCC=C(c2ccc(Nc3nc(Nc4ccccc4C(N)=O)c4cc[nH]c4n3)c(F)c2)C1
Experimental Value: 8.80
//
Compound: COc1ccc(N2CCN(C(C)C)CC2)cc1Nc1nc(Nc2cccc(F)c2C(N)=O)c2cc[nH]c2n1
Experimental Value: 8.40
//
Compound: CCCN1CCC(c2ccc(Nc3nc(Nc4cc(F)ccc4C(N)=O)c4cc[nH]c4n3)c(OC)c2)CC1 [GSK-1326255A]
Experimental Value: 9.52
//
Compound: COc1cc(N2CCN(C(C)C)CC2)c(C)cc1Nc1nc(Nc2cccc(F)c2C(N)=O)c2cc[nH]c2n1
Experimental Value: 8.70
//
Compound: CCCN1CCN(c2ccc(Nc3nc(Nc4cc(F)ccc4C(N)=O)c4cc[nH]c4n3)c(OC)c2)CC1
Experimental Value: 8.80
//
Compound: COc1cc(N2CCN(C(C)C)CC2)ccc1Nc1nc(Nc2cc(F)c(F)cc2C(N)=O)c2cc[nH]c2n1
Experimental Value: 9.30
//
Compound: COc1cc(N2CCN(C(C)C)CC2)ccc1Nc1nc(Nc2ccc(F)cc2C(=O)NC[C@@H](O)CO)c2cc[nH]c2n1 [GSK-1392956A]
Experimental Value: 7.80
//
Compound: CCCN1CCC=C(c2ccc(Nc3nc(Nc4ccccc4C(N)=O)c4cc[nH]c4n3)c(OC)c2)C1
Experimental Value: 9.22
//
Compound: COc1cc(N2CCOCC2)ccc1Nc1nc(Nc2cc(F)ccc2C(N)=O)c2cc[nH]c2n1
Experimental Value: 8.80
//
Compound: COc1cc(C)c(N2CCN(C(C)C)CC2)cc1Nc1nc(Nc2cccc(F)c2C(N)=O)c2cc[nH]c2n1
Experimental Value: 7.70
//
Compound: COc1cc(N2CCN(C(C)C)CC2)ccc1Nc1nc(Nc2ccc(F)cc2C(N)=O)c2cc[nH]c2n1 [GSK-1220512A]
Experimental Value: 9.10
//
Compound: CNC(=O)c1c(F)cccc1Nc1nc(Nc2ccc(N3CCN(C(C)C)CC3)cc2OC)nc2[nH]ccc12
Experimental Value: 8.30
//
Compound: CCCN1CCCC(c2ccc(Nc3nc(Nc4cc(F)ccc4C(N)=O)c4cc[nH]c4n3)c(OC)c2)C1 (racemic) [GSK-1173862A]
Experimental Value: 9.40
//
Compound: COc1cc(N2CCN(C(C)C)CC2)ccc1N(C)c1nc(Nc2cccc(F)c2C(N)=O)c2cc[nH]c2n1
Experimental Value: 7.30
//
Compound: COc1cc(N2CCN(C(C)C)CC2)ccc1Nc1nc(Nc2cccc(F)c2C(N)=O)c2ccn(C)c2n1
Experimental Value: 5.00
//
Compound: COc1cc(N2CCN(C(C)C)CC2)c(F)cc1Nc1nc(Nc2cccc(F)c2C(N)=O)c2cc[nH]c2n1
Experimental Value: 8.70
//
Compound: CCCN1CCC=C(c2ccc(Nc3nc(Nc4ccccc4C(N)=O)c4cc[nH]c4n3)c(C)c2)C1 [GSK-994854A]
Experimental Value: 8.30
//
Compound: COc1c(Nc2nc(Nc3cccc(F)c3C(N)=O)c3cc[nH]c3n2)ccc(N2CCN(C(C)C)CC2)c1C
Experimental Value: 8.10
//
Compound: COc1cc(N2CCN(C(C)C)CC2)ccc1Nc1nc(Nc2ccc(F)cc2C(=O)NO)c2cc[nH]c2n1
Experimental Value: 8.20
//
Compound: COc1cc(N2CCN(C(C)C)CC2)c(OC)cc1Nc1nc(Nc2cccc(F)c2C(N)=O)c2cc[nH]c2n1
Experimental Value: 8.49
//
Compound: COc1cc(N2CCN(C(C)C)CC2)c(Cl)cc1Nc1nc(Nc2cccc(F)c2C(N)=O)c2cc[nH]c2n1
Experimental Value: 8.80
//
Compound: COc1c(Nc2nc(Nc3cccc(F)c3C(N)=O)c3cc[nH]c3n2)ccc(N2CCN(C(C)C)CC2)c1F
Experimental Value: 8.40
//
Compound: CCCN1CCC=C(c2ccc(Nc3nc(Nc4cc(F)ccc4C(N)=O)c4cc[nH]c4n3)c(OC)c2)C1
Experimental Value: 9.10
//
Compound: COCCNC(=O)c1cc(F)ccc1Nc1nc(Nc2ccc(N3CCN(C(C)C)CC3)cc2OC)nc2[nH]ccc12
Experimental Value: 7.60

###

# Experimental System: Insulin-like growth factor 1 receptor (Homo sapiens, UniProt P08069)
# Assay Comment: Inhibition of human IGF1R phosphorylation expressed in HEK293 cells by DELFIA
# Type: cell-based

Smiles Code: COc1ccc(N2CCN(C(C)C)CC2)cc1Nc1nc(Nc2cccc(F)c2C(N)=O)c2cc[nH]c2n1
Uom: nM
IC50: 160
//
Smiles Code: COc1cc(N2CCN(C(C)C)CC2)c(OC)cc1Nc1nc(Nc2cccc(F)c2C(N)=O)c2cc[nH]c2n1
Uom: nM
IC50: 90
//
Smiles Code: COc1cc(N2CCN(C(C)C)CC2)ccc1Nc1nc(Nc2ccccc2C(N)=O)c2cc[nH]c2n1
Uom: nM
IC50: 71
